assay: Selectivity ratio of IC50 for human HepG2A16 cells to IC50 for Plasmodium falciparum W2; type: ADME
measurement.label: selectivity ratio

substance.smiles | relation.qualifier | observed.result
CCN(CC)CCOc1c2ccc(Cl)cc2nc2c3cc(Cl)ccc3n(CCN(CC)CC)c12 | = | 98
CCN(CC)CCn1c2ccccc2c2c1c(=O)c1ccc(Cl)cc1n2CCN(CC)CC | = | 33
O=c1c2ccccc2[nH]c2c1[nH]c1ccccc12 | < | 2
CCN(CC)CCOc1c2ccccc2nc2c1[nH]c1ccccc12 | = | 3.6
CCN(CC)CCn1c2ccc(Cl)cc2c2c1c(=O)c1ccc(Cl)cc1n2CCN(CC)CC | = | 31
CCN(CC)CCOc1c2ccccc2nc2c3ccccc3n(CCN(CC)CC)c12 | = | 12
CCN(CC)CCn1c2ccccc2c2c1c(=O)c1ccccc1n2CCN(CC)CC | = | 16
CCN(CC)CCOc1c2ccc(Cl)cc2nc2c3ccccc3n(CCN(CC)CC)c12 | = | 44

====

experiment: Binding to hematin monomer

substance.smiles | log Kass
CCN(CC)CCn1c2ccc(Cl)cc2c2c1c(=O)c1ccc(Cl)cc1n2CCN(CC)CC | 5.1
O=c1c2ccc(Cl)cc2[nH]c2c1[nH]c1ccccc12 | 5
O=c1c2ccc(Cl)cc2[nH]c2c1[nH]c1ccc(Cl)cc12 | 4.9
CCN(CC)CCn1c2ccccc2c2c1c(=O)c1ccccc1n2CCN(CC)CC | 4.9
CCN(CC)CCOc1c2ccc(Cl)cc2nc2c3ccccc3n(CCN(CC)CC)c12 | 4.9
O=c1c2ccccc2[nH]c2c1[nH]c1ccccc12 | 4.7

====

assay: Binding to hematin monomer

substance.smiles | log Kass
CCN(CC)CCOc1c2ccccc2nc2c1[nH]c1ccccc12 | 5
CCN(CC)CCOc1c2ccc(Cl)cc2nc2c3cc(Cl)ccc3n(CCN(CC)CC)c12 | 5.2
CCN(CC)CCn1c2ccccc2c2c1c(=O)c1ccc(Cl)cc1n2CCN(CC)CC | 4.9
CCN(CC)CCOc1c2ccc(Cl)cc2nc2c1[nH]c1ccccc12 | 5.1
CCN(CC)CCOc1c2ccccc2nc2c3ccccc3n(CCN(CC)CC)c12 | 4.9

====

test: Cytotoxicity against human HepG2A16 cells; format: cell-based
pIC50: −log10 of the molar value.
measurement.label: pIC50

substance.smiles | measurement.label | observed.result
CCN(CC)CCOc1c2ccc(Cl)cc2nc2c3ccccc3n(CCN(CC)CC)c12 | pIC50 | 5.10
CCN(CC)CCOc1c2ccccc2nc2c1[nH]c1ccccc12 | pIC50 | 5.05
CCN(CC)CCn1c2ccc(Cl)cc2c2c1c(=O)c1ccc(Cl)cc1n2CCN(CC)CC | pIC50 | 4.96
